- studySystem: T1, FZD4 cysteine-rich domain (CRD), MYC-tagged and GPI-anchored on CHO cells (human, UniProt Q9ULV1 42-167, GPI anchor)
- T1 construct: also called FZD4 CRD; CHO-myc-FZDGPI; not shown: MYC tag and GPI anchor signal
- T1 sequence: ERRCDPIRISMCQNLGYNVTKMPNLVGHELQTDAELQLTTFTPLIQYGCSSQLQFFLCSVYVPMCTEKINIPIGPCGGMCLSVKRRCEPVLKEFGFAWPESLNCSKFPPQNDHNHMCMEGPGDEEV
- assayProcedure: immunofluorescence, CHO-CRD cells

>  <binder>
Fab-2910 (Fab, V domains shown, Fab) VH: EVQLVESGGGLVQPGGSLRLSCAASGFNISYSYMHWVRQAPGKGLEWVASIYSSSSSTSYADSVKGRFTISADTSKNTAYLQMNSLRAEDTAVYYCARGAMDYWGQGTLVTVSS VL: DIQMTQSPSSLSASVGDRVTITCRASQSVSSAVAWYQQKPGKAPKLLIYSASSLYSGVPSRFSGSRSGTDFTLTISSLQPEDFATYYCQQWYGSHLITFGQGTKVEIK

>  <binding result>
no binding

$$$$
>  <binder>
Fab-2932 (Fab, V domains shown, Fab; also called Fv-2932) VH: EVQLVESGGGLVQPGGSLRLSCAASGFNISYSYMHWVRQAPGKGLEWVASIYSSYSSTSYADSVKGRFTISADTSKNTAYLQMNSLRAEDTAVYYCARGALDYWGQGTLVTVSS VL: DIQMTQSPSSLSASVGDRVTITCRASQSVSSAVAWYQQKPGKAPKLLIYSASSLYSGVPSRFSGSRSGTDFTLTISSLQPEDFATYYCQQWYGSFALITFGQGTKVEIK

>  <binding result>
no binding

$$$$
>  <binder>
Fab-2917 (Fab, V domains shown, Fab; also called Fv-2917) VH: EVQLVESGGGLVQPGGSLRLSCAASGFNFSSSSIHWVRQAPGKGLEWVASISSSYGYTYYADSVKGRFTISADTSKNTAYLQMNSLRAEDTAVYYCARAVWYYWWVWGGFDYWGQGTLVTVSS VL: DIQMTQSPSSLSASVGDRVTITCRASQSVSSAVAWYQQKPGKAPKLLIYSASSLYSGVPSRFSGSRSGTDFTLTISSLQPEDFATYYCQQSSYSLITFGQGTKVEIK

>  <binding result>
no binding

$$$$

Data provenance: patent US20210253718A1
